- protocol_details: E. coli DRC41 culture turbidity changes, primary screen, E. coli filamentation inducer project, strain DRC41, OD650, 48 h (AID 1152);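 further: E. coli MC1000 strain DRC41 lacking acrAB efflux pump and sulA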
- test_parameters: E. coli DRC41 (acrAB sulA), higher = more signal, called active from +8 up or from −8 down
Categories are defined by ranges of z-score, namely low = under -1, mid = from -1 up to -0.2, high = -0.2 and over

Past entries and their recorded results:
>  <compound>
COc1ccc([Si](C)(C)[C@H]2[C@H](CC(=O)N3Cc4ccccc4C[C@H]3CO)O[C@@]3(C(=O)N(Cc4cccc(N5C(=O)c6cccc7cccc5c67)c4)c4ccccc43)[C@@H]2C)cc1

>  <group>
mid

$$$$
>  <compound>
CN1C(=O)[C@]2(CCS(=O)(=O)c3ccccc3)N=C(c3ccc(OCCCO)cc3)O[C@@H]2c2ccccc21

>  <group>
low

$$$$
>  <compound>
CCC(CC)C(O)C1C=CC2C(=O)N(C)C(=O)C2N1N1CCCCC1 (centres undefined)

>  <group>
low

$$$$
>  <compound>
CCC[C@@H]1C=C(C(=O)OCC)[C@H](c2ccccc2)N1S(=O)(=O)c1ccc(C)cc1

>  <group>
mid

$$$$
>  <compound>
[N-]=[N+]=NCc1ccccc1C[C@]1(C(=O)NCc2ccccc2)N=C(c2ccc(OCCCO)cc2)O[C@H]1c1ccccc1CN=[N+]=[N-]

>  <group>
high

$$$$

Form: Item = C=CCOC(=O)[C@H]1[C@@H]2C(=O)O[C@@H](c3ccccc3)[C@@H](c3ccccc3)N2[C@@H](c2ccc(OCCOC(=O)[C@@H]3C[C@@H]4C(=O)N[C@@H](Cc5ccccc5)C(=O)N4[C@@H]3c3ccc(O)cc3)cc2)[C@]12C(=O)Nc1ccccc12 ; Class = ? high

Form: Item = C=C(COC)C(=O)CC[C@@H](OC(=O)c1cccnc1)c1cccc(OCCO)c1 ; Class = ? high

Form: Item = C=CCNC(=O)[C@H]1[C@@H]2C(=O)O[C@@H](c3ccccc3)[C@@H](c3ccccc3)N2[C@@H](c2ccc(O)cc2)[C@]12C(=O)Nc1ccc(C#CC3=CCCCC3)cc12 ; Class = ? high

Form: Item = C=CCC(OC(C)=O)[C@@H]1[C@@H](N(Cc2cc3ccccc3o2)C(=O)Cc2ccc(OC)cc2)c2cc(OCCCO)ccc2N1C(=O)Cc1ccc(OC)cc1 (some centres undefined) ; Class = ? mid

Form: Item = COCCOC(=O)N1C(=O)[C@@]2(c3cc(C#CCNC(N)=O)ccc31)[C@H](C(=O)NC[C@H](O)c1ccccc1)[C@H]1C(=O)O[C@H](c3ccccc3)[C@H](c3ccccc3)N1[C@@H]2c1ccc(OCCO)cc1 ; Class = ? mid

Form: Item = COc1cc2c(cc1O)C(C1CC1)N(Cc1ccc([N+](=O)[O-])o1)CC2 (centres undefined) ; Class = ? low

Form: Item = Cc1ccc(F)cc1S(=O)(=O)N[C@@H]1CCN(Cc2ccc3c(c2)OCO3)C1 ; Class = ? low

Form: Item = C#CCN(C/C=C/c1ccccc1)[C@H](CO[Si](C)(C)C(C)(C)C)c1ccccc1 ; Class = ? mid

----------
- protocol_details: modulators of S6 phosphorylation in cells, primary screen, cell-based, A549, cytoblot, luminescence, serum-stimulated (AID 1158);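 further: serum-stimulated A549 lung adenocarcinoma cells; signal is phosphorylated S6 detected by cytoblot immunostaining with HRP secondary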
- test_parameters: A549 phospho-S6 cytoblot, 5 h, higher = more signal
Everything with z-score lower than 0.07 is No; everything else, including exactly 0.07, is Yes.

Past entries and their recorded results:
>  <molecule>
COCCOC(=O)N1C(=O)[C@@]2(c3cc(C#CCCO)ccc31)[C@H](C(=O)N1CCN(c3ncccn3)CC1)[C@H]1C(=O)O[C@H](c3ccccc3)[C@H](c3ccccc3)N1[C@@H]2c1ccc(O)cc1

>  <group>
Yes

$$$$
>  <molecule>
COC(=O)[C@@]1(Cc2ccc(OC)cc2)[C@@H]2[C@@H](CC(=O)[C@H]2CC(=O)C(=O)N2CCCC2)CN1C(=O)c1ccccc1

>  <group>
No

$$$$

Quick check, z-score >= 0.07? Cc1ccc(S[C@]2(C(=O)NC3CC3)CC(=O)N(Cc3cc(C(F)(F)F)cc(C(F)(F)F)c3)[C@@H]2c2ccc(CO)cc2I)cc1 No

Reference source for all entries: PubChem BioAssay
